Give measured melting point for each item. Keep answers brief.

Check out these entries, answers already filled in.
INSERT INTO results (compound, value_measured) VALUES
  ('CCOc1cc(OC)c(/C=C/C(=O)c2ccc(C(=O)O)cc2)cc1-c1cccs1 [Example 53]', '210 to 212 °C'),
  ('COc1cc(O)c(-c2cccs2)cc1/C=C/C(=O)c1ccc(C(=O)O)cc1 [Example 54]', '243 °C (dec.)'),
  ('COc1cc(OC)c(-c2cc3ccccc3s2)cc1/C=C/C(=O)c1ccc(S(=O)(=O)NC(=O)C(C)C)cc1 [Example 87]', '> 240 °C (dec.)'),
  ('O=C(O)c1ccc(C(=O)/C=C/c2ccc(-c3cccs3)cc2)cc1 [Example 10]', '> 260 °C'),
  ('COc1cc(OC)c(-c2cc3ccccc3s2)cc1/C=C/C(=O)c1ccccc1C(=O)[O-].[Na+] [Example 9]', '214 to 217 °C (dec.)');

Value sought for every listed compound: melting point.
1. COc1cc(OC(C)(C)C(=O)O)c(/C=C/C(=O)c2ccc(S(N)(=O)=O)cc2)cc1-c1cccs1 [Example 82]
2. O=C(O)c1ccc(C(=O)/C=C/c2cccc(-c3cccs3)c2)cc1 [Example 42]
3. O=C(O)c1ccc(C(=O)/C=C/c2ccc(-c3nccs3)cc2)cc1 [Example 5]
4. COc1cc(OC)c(-c2cc3ccccc3n2C(=O)OC(C)(C)C)cc1/C=C/C(=O)c1ccc(C(=O)O)cc1 [Example 36]

1: 164 to 165 °C; 2: 238 °C (dec.); 3: 232 to 235 °C; 4: 182 to 183 °C

Go through the list and state melting point for each entry.
1. COc1cc(OC)c(-c2cc3ccccc3n2C)cc1/C=C/C(=O)c1ccc(S(N)(=O)=O)cc1 [Example 117]
2. O=C(O)c1ccc(C(=O)/C=C/c2ccc(N3CCCC3)c(-c3cccs3)c2)cc1 [Example 20]
3. NS(=O)(=O)c1ccc(C(=O)/C=C/c2ccc(-c3cccs3)cc2)cc1 [Example 26]
4. COc1cc(O)c(/C=C/C(=O)c2ccc(C(=O)O)cc2)cc1-c1cccs1 [Example 58]
5. O=C(O)c1ccc(C(=O)/C=C/c2ccc(-c3cncnc3)cc2)cc1 [Example 4]

148 to 150 °C
212 to 214 °C (dec.)
> 245 °C
125 °C (dec.)
> 260 °C

Parameter requested: melting point. Apply to each item below.
1. COc1cc(OCCCN2CCOCC2)c(/C=C/C(=O)c2ccc(C(=O)O)cc2)cc1-c1cccs1.Cl [Example 66]
2. COc1cc(OCCN2CCOCC2)c(/C=C/C(=O)c2ccc(S(N)(=O)=O)cc2)cc1-c1cccs1.Cl

1: 188 to 191 °C (dec.); 2: 235 °C (dec.)

For the compound shown here, COc1cc(OCc2ccccn2)c(/C=C/C(=O)c2ccc(S(N)(=O)=O)cc2)cc1-c1cccs1 [Example 114] , give the reported melting point.
188 to 189 °C

###

recorded.endpoint: melting point

Please look at the items below and tell me melting point for each one, in order.
1. COc1cc(OC)c(-c2ccc(C)s2)cc1/C=C/C(=O)c1ccc(C(=O)O)cc1 [Example 40]
2. COc1cc(OC(C)(C)C(=O)O)c(-c2cccs2)cc1/C=C/C(=O)c1ccc(C(=O)O)cc1 [Example 47]
3. COc1cc(OC)c(-c2cc3ccccc3s2)cc1/C=C/C(=O)c1ccc(C(=O)NC(=O)C(C)C)cc1 [Example 96]
4. COc1cc(OC)c(-c2nccs2)cc1/C=C/C(=O)c1ccc(C(=O)O)cc1 [Example 55]

1. 213 to 215 °C
2. 135 to 137 °C
3. 208 to 209 °C
4. > 260 °C
